# tgt: murine class II MHC allele E^k on CH27 B cell lymphoma antigen presenting cells (murine)
# assay name: cell-based or functional assay
Non-standard residues stand in square brackets, D forms with d. Ava = NCCCCC(=O)O
experimental endpoint: T cell proliferative response (HT-2 [3H]TdR uptake) at 3000 nM

Ask | Entry under review: Ac-LRMK[Ava]IAYLKQATAK-NH2 (SMILES CC[C@H](C)[C@H](NC(=O)CCCCNC(=O)[C@H](CCCCN)NC(=O)[C@H](CCSC)NC(=O)[C@H](CCCNC(=N)N)NC(=O)[C@H](CC(C)C)NC(C)=O)C(=O)N[C@@H](C)C(=O)N[C@@H](Cc1ccc(O)cc1)C(=O)N[C@@H](CC(C)C)C(=O)N[C@@H](CCCCN)C(=O)N[C@@H](CCC(N)=O)C(=O)N[C@@H](C)C(=O)N[C@H](C(=O)N[C@@H](C)C(=O)N[C@@H](CCCCN)C(N)=O)[C@@H](C)O) [Hybrid 2, Ac-LRMK-ava-IAYLKQATAK-NH2] . Reported T cell proliferative response (HT-2 [3H]TdR uptake) at 3000 nM?
Reply | 25.1 thousands of cpm
